# TARGET_OR_TEST_SYSTEM: human mGluR5A (Homo sapiens (Human))
# Sequence (P41594 other isoform, or with tags, fused parts or gaps): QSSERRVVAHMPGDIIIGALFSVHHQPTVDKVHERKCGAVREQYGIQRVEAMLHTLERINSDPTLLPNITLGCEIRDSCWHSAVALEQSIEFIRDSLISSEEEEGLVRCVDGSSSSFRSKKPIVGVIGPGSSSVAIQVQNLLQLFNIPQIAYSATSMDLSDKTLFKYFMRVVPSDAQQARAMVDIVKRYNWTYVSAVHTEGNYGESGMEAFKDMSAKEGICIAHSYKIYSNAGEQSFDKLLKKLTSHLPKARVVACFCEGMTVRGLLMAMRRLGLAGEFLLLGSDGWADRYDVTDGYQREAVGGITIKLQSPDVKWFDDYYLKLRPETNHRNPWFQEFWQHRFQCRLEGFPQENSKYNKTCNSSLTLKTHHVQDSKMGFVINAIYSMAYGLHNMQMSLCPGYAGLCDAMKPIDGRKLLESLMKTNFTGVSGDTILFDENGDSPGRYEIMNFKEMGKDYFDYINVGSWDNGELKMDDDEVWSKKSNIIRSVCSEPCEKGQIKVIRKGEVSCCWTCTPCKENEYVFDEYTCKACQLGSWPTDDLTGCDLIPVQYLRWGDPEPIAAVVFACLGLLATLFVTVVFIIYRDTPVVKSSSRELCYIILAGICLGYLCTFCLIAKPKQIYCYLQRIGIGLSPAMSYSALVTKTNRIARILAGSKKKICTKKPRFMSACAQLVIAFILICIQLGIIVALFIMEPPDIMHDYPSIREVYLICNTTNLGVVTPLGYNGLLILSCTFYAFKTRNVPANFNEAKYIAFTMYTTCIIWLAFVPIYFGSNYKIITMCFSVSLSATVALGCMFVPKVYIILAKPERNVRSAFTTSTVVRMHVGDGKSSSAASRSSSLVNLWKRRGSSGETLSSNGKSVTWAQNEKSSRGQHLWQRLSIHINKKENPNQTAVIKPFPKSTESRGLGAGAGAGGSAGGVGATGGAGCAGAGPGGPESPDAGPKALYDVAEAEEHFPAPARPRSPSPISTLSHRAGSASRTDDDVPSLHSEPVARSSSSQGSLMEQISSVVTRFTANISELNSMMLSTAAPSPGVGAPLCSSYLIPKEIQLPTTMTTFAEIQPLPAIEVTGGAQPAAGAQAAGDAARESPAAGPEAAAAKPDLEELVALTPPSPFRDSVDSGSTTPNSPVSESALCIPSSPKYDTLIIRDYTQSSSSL
# ASSAY_PROTOCOL: mGluR5 FLIPR Assay
# SETTINGS: positive modulator activity, HEK293 (ZF) cells with human mGluR5A and rat GLAST, Ca++ response to ~EC10 l-glutamate
pEC50: −log10 of the molar value.
RESULT_TYPE: pEC50

Some entries whose results are on file:
[[record]]
compound = "O=C1N[C@H](c2cncc(C#CCC3CCOC3)c2)[C@@H](c2cccc(F)c2)O1 (some centres unmarked) [Example 66]"
val = 7.82

[[record]]
compound = "O=C1N[C@H](c2cncc(C#CC(O)C3CCC3)c2)[C@@H](c2cccc(F)c2)O1 (some centres unmarked)"
val = 7.78

[[record]]
compound = "CC(C)C(O)C#Cc1cncc([C@H]2NC(=O)O[C@@H]2c2cccc(F)c2)c1 (some centres unmarked)"
val = 7.11

[[record]]
compound = "CCSCC#Cc1cncc([C@H]2NC(=O)O[C@@H]2c2cccc(F)c2)c1"
val = 8.70

[[record]]
compound = "Cc1ccnn1CC#Cc1cncc([C@H]2NC(=O)O[C@@H]2c2cccc(F)c2)c1"
val = 6.97

[[record]]
compound = "CCC(O)C#Cc1cncc([C@H]2NC(=O)O[C@@H]2c2cccc(F)c2)c1 (some centres unmarked)"
val = 6.94

[[record]]
compound = "O=C1N[C@H](c2cncc(C#CCN3CC(F)(F)C3)c2)[C@@H](c2cccc(F)c2)O1"
val = 7.53

[[record]]
compound = "O=C1N[C@H](c2cncc(C#CC3CC(F)(F)C3)c2)[C@@H](c2cc(F)c(F)cc2F)O1"
val = 7.23

[[record]]
compound = "CC(O)CCC#Cc1cncc([C@H]2NC(=O)O[C@@H]2c2cccc(F)c2)c1 (some centres unmarked) [Example 8]"
val = 7.91


(I) CCOCC#Cc1cncc([C@H]2NC(=O)O[C@@H]2c2cccc(F)c2)c1
(II) O=C1N[C@H](c2cncc(C#CC3(O)CCCCC3)c2)[C@@H](c2cccc(F)c2)O1
Larger number for pEC50: I , or II ? Refer to your chosen entry by its label in the reply.
I
(I: 7.79, II: 5.98)

----------
# TARGET_OR_TEST_SYSTEM: human mGluR5A (Homo sapiens (Human))
# ASSAY_PROTOCOL: mGluR5 FLIPR Assay
# SETTINGS: positive modulator activity, HEK293 (ZF) cells with human mGluR5A and rat GLAST, Ca++ response to ~EC10 l-glutamate
RESULT_TYPE: EC50 (nM)

Some entries whose results are on file:
[[record]]
compound = "CC(O)CCC#Cc1cncc([C@H]2NC(=O)O[C@@H]2c2cccc(F)c2)c1 (stereo partly shown) [Example 10]"
val = 12.6

[[record]]
compound = "CC1CC1C(O)C#Cc1cncc([C@H]2NC(=O)O[C@@H]2c2cccc(F)c2)c1 (stereo partly shown)"
val = 129


(P) O=C1N[C@H](c2cc(C#CC3CC(F)(F)C3)cnc2F)[C@@H](c2cccc(F)c2)O1
(Q) O=C1N[C@H](c2cncc(C#CCN3CCOCC3)c2)[C@@H](c2cccc(F)c2)O1
Form: Entry with minimum EC50 (choose one): P / Q Refer to your chosen entry by its label in the reply.
P

----------
# TARGET_OR_TEST_SYSTEM: human mGluR5A (Homo sapiens (Human))
# ASSAY_PROTOCOL: mGluR5 FLIPR Assay
# SETTINGS: positive modulator activity, HEK293 (ZF) cells with human mGluR5A and rat GLAST, Ca++ response to ~EC10 l-glutamate
pEC50: −log10 of the molar value.
RESULT_TYPE: pEC50

(A) Cc1cnn(CC#Cc2cncc([C@H]3NC(=O)O[C@@H]3c3cccc(F)c3)c2)c1 [Example 54]
(B) CCOCCC#Cc1cncc([C@H]2NC(=O)O[C@@H]2c2cccc(F)c2)c1 [Example 55]
(C) O=C1N[C@H](c2cncc(C#CCN3CCCCC3)c2)[C@@H](c2cccc(F)c2)O1 [Example 41]
(D) O=C1N[C@H](c2cncc(C#CCC3CCCCC3)c2)[C@@H](c2cccc(F)c2)O1 [Example 13]
Order the records, beginning with the lowest pEC50 and ending with the highest. As an answer, provide the labels arranged in the order called for.
C, A, B, D
(C: 6.14, A: 6.97, B: 7.56, D: 7.79)
